Test system: NCI-H211 tumor spheroids, viability percent test/control
Experiment: Anticancer human tumor NCI-H211 cell line growth inhibition;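 also: spheroids exposed to agents for seven days before readout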
Conditions: second compound 0.000949 µM; first compound 1 µM; stronger effect = lower value; spheroids with HUVEC and MSC
Let's look at some molecules and their measured viability, T/C.

Given the entry COc1ccc([C@@H](O)c2cc(-c3ncnc4cc(N5CCOCC5)ccc34)c(F)cc2Cl)nn1 + COc1cc2c(cc1O)CCNC21CSC2c3c(OC(C)=O)c(C)c4c(c3C(COC1=O)N1C(O)C3Cc5cc(C)c(OC)c(O)c5C(C21)N3C)OCO4 , report its measured viability, T/C.
0.16%

Given the entry CC(C)n1c(=O)n(C)c2cnc3cc(F)c(-c4ccc(OCCCN5CCCCC5)nc4)cc3c21 + COc1cc2c(cc1O)CCNC21CSC2c3c(OC(C)=O)c(C)c4c(c3C(COC1=O)N1C(O)C3Cc5cc(C)c(OC)c(O)c5C(C21)N3C)OCO4 , report its measured viability, T/C.
0.72%

Given the entry COc1cc(C)[nH]c(=O)c1CN1CCc2c(Cl)cc(C(OC)C3COC3)c(Cl)c2C1=O (stereo unspecified) + COc1cc2c(cc1O)CCNC21CSC2c3c(OC(C)=O)c(C)c4c(c3C(COC1=O)N1C(O)C3Cc5cc(C)c(OC)c(O)c5C(C21)N3C)OCO4 , report its measured viability, T/C.
1.2%

Given the entry Cc1cc(C)c(CNC(=O)c2cc(-c3ccc(CN4CCOCC4)cc3)cc3c2cnn3C2CCCC2)c(=O)[nH]1 + COc1cc2c(cc1O)CCNC21CSC2c3c(OC(C)=O)c(C)c4c(c3C(COC1=O)N1C(O)C3Cc5cc(C)c(OC)c(O)c5C(C21)N3C)OCO4 , report its measured viability, T/C.
0.96%

Given the entry [2H]c1nc(C)nc([2H])c1-c1cc(NC[C@@H](C)c2cccc3c(C(=O)NC)ccnc23)ncn1 + COc1cc2c(cc1O)CCNC21CSC2c3c(OC(C)=O)c(C)c4c(c3C(COC1=O)N1C(O)C3Cc5cc(C)c(OC)c(O)c5C(C21)N3C)OCO4 , report its measured viability, T/C.
0.65%

// below: viability, T/C requested for another molecule
Given the entry CC1COCCN1c1cc(-c2ccnn2C)c2ccnc(-c3ccn[nH]3)c2n1 (stereo unspecified) + COc1cc2c(cc1O)CCNC21CSC2c3c(OC(C)=O)c(C)c4c(c3C(COC1=O)N1C(O)C3Cc5cc(C)c(OC)c(O)c5C(C21)N3C)OCO4 , report its measured viability, T/C.
0.81%

----------
Let's look at some compounds and their measured viability, T/C.
System: NCI-H211 tumor spheroids, viability percent test/control
Test: Anticancer human tumor NCI-H211 cell line growth inhibition;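 also: spheroids exposed to agents for seven days before readout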
Details: second compound 94.9 pM; first compound 3.16 µM; stronger effect = lower value; spheroids with HUVEC and MSC
Kindly provide the numeric value in % only, without the unit symbol.

Please review the entries below; each comes with its answer.
Given the entry [2H]c1nc(C)nc([2H])c1-c1cc(NC[C@@H](C)c2cccc3c(C(=O)NC)ccnc23)ncn1 + COc1cc2c(cc1O)CCNC21CSC2c3c(OC(C)=O)c(C)c4c(c3C(COC1=O)N1C(O)C3Cc5cc(C)c(OC)c(O)c5C(C21)N3C)OCO4 , report its measured viability, T/C.
7.6

Given the entry Cc1cc(C)c(CNC(=O)c2cc(-c3ccc(CN4CCOCC4)cc3)cc3c2cnn3C2CCCC2)c(=O)[nH]1 + COc1cc2c(cc1O)CCNC21CSC2c3c(OC(C)=O)c(C)c4c(c3C(COC1=O)N1C(O)C3Cc5cc(C)c(OC)c(O)c5C(C21)N3C)OCO4 , report its measured viability, T/C.
2.44

Given the entry COc1cc(C)[nH]c(=O)c1CN1CCc2c(Cl)cc(C(OC)C3COC3)c(Cl)c2C1=O (stereo unspecified) + COc1cc2c(cc1O)CCNC21CSC2c3c(OC(C)=O)c(C)c4c(c3C(COC1=O)N1C(O)C3Cc5cc(C)c(OC)c(O)c5C(C21)N3C)OCO4 , report its measured viability, T/C.
10.4

Given the entry COc1ccc([C@@H](O)c2cc(-c3ncnc4cc(N5CCOCC5)ccc34)c(F)cc2Cl)nn1 + COc1cc2c(cc1O)CCNC21CSC2c3c(OC(C)=O)c(C)c4c(c3C(COC1=O)N1C(O)C3Cc5cc(C)c(OC)c(O)c5C(C21)N3C)OCO4 , report its measured viability, T/C.
0.35

Given the entry CC(C)n1c(=O)n(C)c2cnc3cc(F)c(-c4ccc(OCCCN5CCCCC5)nc4)cc3c21 + COc1cc2c(cc1O)CCNC21CSC2c3c(OC(C)=O)c(C)c4c(c3C(COC1=O)N1C(O)C3Cc5cc(C)c(OC)c(O)c5C(C21)N3C)OCO4 , report its measured viability, T/C.
0.8

Further cases:
Given the entry CC1COCCN1c1cc(-c2ccnn2C)c2ccnc(-c3ccn[nH]3)c2n1 (stereo unspecified) + COc1cc2c(cc1O)CCNC21CSC2c3c(OC(C)=O)c(C)c4c(c3C(COC1=O)N1C(O)C3Cc5cc(C)c(OC)c(O)c5C(C21)N3C)OCO4 , report its measured viability, T/C.
0.35

----------
Test system: NCI-H211 tumor spheroids, viability percent test/control
Experiment: Anticancer human tumor NCI-H211 cell line growth inhibition;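 also: spheroids exposed to agents for seven days before readout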
Details: second compound 0.3 µM; first compound 0.316 µM; stronger effect = lower value; spheroids with HUVEC and MSC
Response field label: string, one of Fulfilled (viability, T/C strictly below 1%) or Not fulfilled.

Completed entries (count: 4):
Confirm or reject: viability, T/C of [2H]c1nc(C)nc([2H])c1-c1cc(NC[C@@H](C)c2cccc3c(C(=O)NC)ccnc23)ncn1 + CC[C@@]1(O)C(=O)OCc2c1cc1n(c2=O)Cc2cc3c(CN(C)C)c(O)ccc3nc2-1 lies strictly below 1%
Fulfilled

Confirm or reject: viability, T/C of CC(C)n1c(=O)n(C)c2cnc3cc(F)c(-c4ccc(OCCCN5CCCCC5)nc4)cc3c21 + CC[C@@]1(O)C(=O)OCc2c1cc1n(c2=O)Cc2cc3c(CN(C)C)c(O)ccc3nc2-1 lies strictly below 1%
Fulfilled

Confirm or reject: viability, T/C of COc1ccc([C@@H](O)c2cc(-c3ncnc4cc(N5CCOCC5)ccc34)c(F)cc2Cl)nn1 + CC[C@@]1(O)C(=O)OCc2c1cc1n(c2=O)Cc2cc3c(CN(C)C)c(O)ccc3nc2-1 lies strictly below 1%
Fulfilled

Confirm or reject: viability, T/C of COc1cc(C)[nH]c(=O)c1CN1CCc2c(Cl)cc(C(OC)C3COC3)c(Cl)c2C1=O (stereo unspecified) + CC[C@@]1(O)C(=O)OCc2c1cc1n(c2=O)Cc2cc3c(CN(C)C)c(O)ccc3nc2-1 lies strictly below 1%
Not fulfilled

Further cases:
Confirm or reject: viability, T/C of CC1COCCN1c1cc(-c2ccnn2C)c2ccnc(-c3ccn[nH]3)c2n1 (stereo unspecified) + CC[C@@]1(O)C(=O)OCc2c1cc1n(c2=O)Cc2cc3c(CN(C)C)c(O)ccc3nc2-1 lies strictly below 1%
Fulfilled

Confirm or reject: viability, T/C of Cc1cc(C)c(CNC(=O)c2cc(-c3ccc(CN4CCOCC4)cc3)cc3c2cnn3C2CCCC2)c(=O)[nH]1 + CC[C@@]1(O)C(=O)OCc2c1cc1n(c2=O)Cc2cc3c(CN(C)C)c(O)ccc3nc2-1 lies strictly below 1%
Not fulfilled

----------
System: NCI-H211 tumor spheroids, viability percent test/control
Test: Anticancer human tumor NCI-H211 cell line growth inhibition;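 also: spheroids exposed to agents for seven days before readout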
Settings: second compound 0.003 µM; first compound 0.3 µM; stronger effect = lower value; spheroids with HUVEC and MSC
Let's look at some compounds and their measured viability, T/C.
Kindly provide the numeric value in % only, without the unit symbol.

Please review the entries below; each comes with its answer.
What is its viability, T/C for NCI-H211 tumor spheroids, viability percent test/control? Entry: O=C(c1cc(Cc2n[nH]c(=O)c3ccccc23)ccc1F)N1CCN(C(=O)C2CC2)CC1 + CC[C@@]1(O)C(=O)OCc2c1cc1n(c2=O)Cc2cc3c(CN(C)C)c(O)ccc3nc2-1
3.33

What is its viability, T/C for NCI-H211 tumor spheroids, viability percent test/control? Entry: Cc1sc2c(c1C)C(c1ccc(Cl)cc1)=NC(CC(=O)Nc1ccc(O)cc1)c1nnc(C)n1-2 (stereo not drawn) + CC[C@@]1(O)C(=O)OCc2c1cc1n(c2=O)Cc2cc3c(CN(C)C)c(O)ccc3nc2-1
0.53

What is its viability, T/C for NCI-H211 tumor spheroids, viability percent test/control? Entry: Cc1sc2c(c1C)C(c1ccc(Cl)cc1)=NC(CC(=O)Nc1ccc(O)cc1)c1nnc(C)n1-2 (stereo not drawn) + COc1cc2c(cc1O)CCNC21CSC2c3c(OC(C)=O)c(C)c4c(c3C(COC1=O)N1C(O)C3Cc5cc(C)c(OC)c(O)c5C(C21)N3C)OCO4
0.08

What is its viability, T/C for NCI-H211 tumor spheroids, viability percent test/control? Entry: O=C(c1cc(Cc2n[nH]c(=O)c3ccccc23)ccc1F)N1CCN(C(=O)C2CC2)CC1 + COc1cc2c(cc1O)CCNC21CSC2c3c(OC(C)=O)c(C)c4c(c3C(COC1=O)N1C(O)C3Cc5cc(C)c(OC)c(O)c5C(C21)N3C)OCO4
0.28

What is its viability, T/C for NCI-H211 tumor spheroids, viability percent test/control? Entry: Cn1ncnc1[C@H]1c2n[nH]c(=O)c3cc(F)cc(c23)N[C@@H]1c1ccc(F)cc1 + COc1cc2c(cc1O)CCNC21CSC2c3c(OC(C)=O)c(C)c4c(c3C(COC1=O)N1C(O)C3Cc5cc(C)c(OC)c(O)c5C(C21)N3C)OCO4
0.1

Further cases:
What is its viability, T/C for NCI-H211 tumor spheroids, viability percent test/control? Entry: CNCc1ccc(-c2cc(-c3nc(-c4ccc(S(=O)(=O)C(C)C)cc4)cnc3N)on2)cc1 + COc1cc2c(cc1O)CCNC21CSC2c3c(OC(C)=O)c(C)c4c(c3C(COC1=O)N1C(O)C3Cc5cc(C)c(OC)c(O)c5C(C21)N3C)OCO4
0.1

What is its viability, T/C for NCI-H211 tumor spheroids, viability percent test/control? Entry: Cn1ncnc1[C@H]1c2n[nH]c(=O)c3cc(F)cc(c23)N[C@@H]1c1ccc(F)cc1 + CC[C@@]1(O)C(=O)OCc2c1cc1n(c2=O)Cc2cc3c(CN(C)C)c(O)ccc3nc2-1
1.13

What is its viability, T/C for NCI-H211 tumor spheroids, viability percent test/control? Entry: CNCc1ccc(-c2cc(-c3nc(-c4ccc(S(=O)(=O)C(C)C)cc4)cnc3N)on2)cc1 + CC[C@@]1(O)C(=O)OCc2c1cc1n(c2=O)Cc2cc3c(CN(C)C)c(O)ccc3nc2-1
0.92
